Reference for the values: patent US20100104980A1

# Assay Name: Solubility in 1-methoxy-2-propanol (MOP) at 80° C., Lasentec FBRM technology
# Type: physicochemical
# Condition: solubility in 1-methoxy-2-propanol at 80° C.; from curve fitting of experimental data
Measured Quantity: S (MOP) 80° C. (wt. %)

• CCC(CC)Oc1c(OC)cc(/C=C/c2ccc(/C=C/c3cc(OC)c(OC(CC)CC)c(OC)c3)cc2)cc1OC [SS-05] = 6.14

a = COc1cc(/C=C/c2ccc(/C=C/c3cc(OC)c(OC(C)C)c(OC)c3)cc2)cc(OC)c1OC(C)C [SS-03]
b = CCCOc1c(OC)cc(/C=C/c2ccc(/C=C/c3cc(OC)c(OCCC)c(OC)c3)cc2)cc1OC [SS-02]
c = CCC(C)Oc1c(OC)cc(/C=C/c2ccc(/C=C/c3cc(OC)c(OC(C)CC)c(OC)c3)cc2)cc1OC (centres unmarked) [SS-04]
d = COc1cc(/C=C/c2ccc(/C=C/c3cc(OC)c(OC)c(OC)c3)cc2)cc(OC)c1OC [SS-01]
*Q* Returns the items ordered by S (MOP) 80° C., from maximum to minimum. Sort the labels as requested; that list is your answer.
*A* c, b, a, d
(c: 22.76 wt. %, b: 10.78 wt. %, a: 7.31 wt. %, d: 4.66 wt. %)

* * *

Measured Quantity: melting point (°C)

• CCC(C)Oc1c(OC)cc(/C=C/c2ccc(/C=C/c3cc(OC)c(OC4CCCCC4)c(OC)c3)cc2)cc1OC (centres unmarked) [AS-03] = 165
• CCC(C)Oc1c(OC)cc(/C=C/c2ccc(/C=C/c3cc(OC)c(OC(CC)CC)c(OC)c3)cc2)cc1OC (centres unmarked) [AS-02] = 155
• CCC(C)Oc1c(OC)cc(/C=C/c2ccc(/C=C/c3cc(OC)c(OCCO)c(OC)c3)cc2)cc1OC (centres unmarked) [AS-05] = 137

1 = CCC(C)Oc1c(OC)cc(/C=C/c2ccc(/C=C/c3cc(OC)c(OC4CCCC4)c(OC)c3)cc2)cc1OC (centres unmarked) [AS-04]
2 = CCCCC(CC)COc1c(OC)cc(/C=C/c2ccc(/C=C/c3cc(OC)c(OC(C)CC)c(OC)c3)cc2)cc1OC (centres unmarked) [AS-01]
*Q* Given the listed items, does 1 or 2 have the lesser reported melting point? Write down the label of the entry you select.
*A* 2
